Examples of molecules with documented inhibition in vivo at 100 mg/kg follow.
Tested on: secretion of gastric fluids
procedureSummary: anti-secretory activity in pylorus-ligated rats (method of Shay et al.)
Type: in vivo, male albino Wistar rats
experimentalParameters: Rattus norvegicus, 5 h; oral, 100 mg./kg.; read-out: % Inhibition of Free Acid
Report only the number, with the unit % understood.

>>> val("Cc1c(C=O)c2ccccc2n1CC(N)=O [Example 6, 2-methyl-3-formyl-1-indoleacetamide]")
0
>>> val("NC(=O)CCn1c(-c2ccccc2)c(C=O)c2ccccc21 [Example 4N]")
0
>>> val("Cc1c(C=O)c2ccccc2n1CCCC(N)=O [Example 4J, γ-(2-Methyl-3-formyl-1-indole)butyramide]")
17
>>> val("Cc1c(C=O)c2cc(F)ccc2n1CCC(N)=O [Example 4G]")
17

[in] Recorded inhibition in vivo at 100 mg/kg for Cc1c(C=O)c2ccccc2n1CCC(N)=O [Example 4F] , please?
[out] 0

[in] Recorded inhibition in vivo at 100 mg/kg for Cc1c(C(=O)C(F)(F)F)c2ccccc2n1CCC(N)=O [Example 4L] , please?
[out] 46
